# System: MDR1
# Assay info: Apparent permeability from basolateral to apical side in MDCK cells expressing MDR1
# Format: ADME, cell-based, Canis lupus familiaris
# Condition context: dog
Measured attribute: Papp B→A
Please make sure the unit comes right after the number.

Task: Please tell me: Papp B→A of COc1cc(C(O)P(=O)(O)CC[C@H](N)C(=O)O)cc([N+](=O)[O-])c1O (mixture of isomers) , system MDR1?
Result: 5 nm/s
